# TARGET_OR_SYSTEM: recombinant MARK4 (Homo sapiens)
# Construct: made in house; host or cells: bacterial cells (Luria-Bertani broth, IPTG induction)
# Sequence (Q96L34 1-752): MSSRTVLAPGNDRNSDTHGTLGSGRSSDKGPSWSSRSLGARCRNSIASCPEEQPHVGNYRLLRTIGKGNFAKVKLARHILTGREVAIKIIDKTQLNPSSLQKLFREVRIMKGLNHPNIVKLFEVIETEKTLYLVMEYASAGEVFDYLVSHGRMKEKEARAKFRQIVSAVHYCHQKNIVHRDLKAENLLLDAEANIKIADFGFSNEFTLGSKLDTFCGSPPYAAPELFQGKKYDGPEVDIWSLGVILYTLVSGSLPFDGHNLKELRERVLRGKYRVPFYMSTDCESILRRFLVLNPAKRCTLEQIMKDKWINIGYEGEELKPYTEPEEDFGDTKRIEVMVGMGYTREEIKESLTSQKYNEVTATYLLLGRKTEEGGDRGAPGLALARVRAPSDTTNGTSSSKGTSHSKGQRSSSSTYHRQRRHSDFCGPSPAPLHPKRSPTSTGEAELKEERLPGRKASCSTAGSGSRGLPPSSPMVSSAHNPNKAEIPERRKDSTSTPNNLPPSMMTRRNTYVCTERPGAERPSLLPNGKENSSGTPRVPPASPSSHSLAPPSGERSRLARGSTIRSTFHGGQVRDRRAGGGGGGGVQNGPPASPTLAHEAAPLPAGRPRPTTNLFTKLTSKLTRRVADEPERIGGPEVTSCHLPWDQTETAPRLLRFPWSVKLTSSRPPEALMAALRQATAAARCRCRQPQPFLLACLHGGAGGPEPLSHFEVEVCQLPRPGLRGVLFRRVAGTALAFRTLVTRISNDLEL
# ASSAY_EXPLANATION: Fluorescence binding (quenching, modified Stern-Volmer)
# TEST_CONTEXT: Table S3; fluorescence binding; read-out: Binding affinity (Ka) (converted)
OBSERVATION_TYPE: Kd
Express your answer as a number followed by its unit.

Data request: For CC(=O)c1ccc(NC(=O)Cn2c3ccccc3c(=O)c3cc(C)ccc32)cc1 [Compound 7j] , what is its reported Kd?
Data returned: 501 µM

Data request: Entry COC(=O)c1ccc(NC(=O)Cn2c3ccccc3c(=O)c3cc(C)ccc32)cc1 [Compound 7i] please
Data returned: 1580 µM

Data request: And for Cc1ccc2c(c1)c(=O)c1ccccc1n2CC(=O)N1CCOCC1 [Compound 7a] ?
Data returned: 501 µM

Data request: Okay, and COc1ccc(CNC(=O)Cn2c3ccccc3c(=O)c3cc(C)ccc32)cc1 [Compound 7d] ?
Data returned: 1 µM

Data request: Another compound to check: Cc1ccc2c(c1)c(=O)c1ccccc1n2CC(=O)N(C)Cc1ccccc1 [Compound 7c]
Data returned: 501 µM

* * *

# TARGET_OR_SYSTEM: recombinant MARK4 (Homo sapiens, UniProt Q96L34)
# Construct: made in house; host or cells: bacterial cells (Luria-Bertani broth, IPTG induction)
# ASSAY_EXPLANATION: ATPase enzyme inhibition assay (Malachite Green)
# Type: biochemical
# TEST_CONTEXT: Table 1; from enzyme inhibition; read-out: IC50, (µM), MARK4
OBSERVATION_TYPE: IC50
Could you write the number and then its unit?

Data request: Param item = COc1ccc(CNC(=O)Cn2c3ccccc3c(=O)c3cc(C)ccc32)cc1 [Compound 7d] ; retrieve measured IC50.
Data returned: 2.2 µM

Data request: Now give it for Cc1ccc2c(c1)c(=O)c1ccccc1n2CC(=O)NCc1ccccc1 [Compound 7b] too.
Data returned: 1.8 µM

Data request: Ok, now Cc1ccc(NC(=O)Cn2c3ccccc3c(=O)c3cc(C)ccc32)cc1 [Compound 7f]
Data returned: 4.5 µM
